Tested on: SK-MEL-2
Assay: Antiproliferative activity against human SK-MEL-2 cells measured after 48 hrs by SRB assay
Assay type: functional, cell-based
Measurement Setup: SK-MEL-2, 48 h
pIC50: −log10 of the molar value.
Classify as follows. Reported pIC50 greater than or equal to 5: fulfilled. Reported pIC50 below: not fulfilled.

Record excerpt, results attached:
O=C1c2ccccc2-c2n[nH]c3cccc1c23 | not fulfilled
O=C(Nc1ccc(Cl)c(C(F)(F)F)c1)N1CCN(c2cc(-c3cn(-c4ccccc4)nc3-c3cccc(O)c3)ccn2)CC1 | fulfilled
COc1cccc(-c2nn(-c3ccccc3)cc2-c2ccnc(NCCCNC(=O)Nc3ccc(F)cc3)c2)c1 | fulfilled

Q: Threshold query (pIC50 >= 5) on O=C(NCCCNc1cc(-c2cn(-c3ccccc3)nc2-c2cccc(O)c2)ccn1)Nc1ccc(F)cc1
Result: fulfilled

Q: State whether the measured pIC50 reaches 5, counting equality as reaching it, for O=C(NCCCNc1cc(-c2cn(-c3ccccc3)nc2-c2cccc(O)c2)ccn1)Nc1cccc(C(F)(F)F)c1
Result: fulfilled
